system: A375 multi-cell spheroids with HUVEC/MSC, viability; test: Anticancer human tumor A375 cell line growth inhibition [GQUAD]; details: curve of first compound; second compound 0.0316 µM;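 also: spheroids exposed to compounds for seven days before readout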
Returns: string. Value is 1 (yes) if measured IC50 is below 200 nM, and 0 (no) if it is greater than or equal to it.

molecule	discrete_label
COc1cccc2c1C(=O)c1c(O)c3c(c(O)c1C2=O)CC(O)(C(=O)CO)CC3OC1CC(N)C(O)C(C)O1 (stereo unspecified) + Cc1[nH]c2ccc(F)cc2c1-c1nc2c3cccnc3c3ncccc3c2[nH]1	0 (no)
CC(C)(O)C1CCC(Nc2ccc3ncc(-c4cccc(C(F)(F)F)c4)n3n2)CC1 (stereo unspecified) + Cc1[nH]c2ccc(F)cc2c1-c1nc2c3cccnc3c3ncccc3c2[nH]1	0 (no)
CCCS(=O)(=O)Nc1ccc(F)c(C(=O)c2c[nH]c3ncc(-c4ccc(Cl)cc4)cc23)c1F + Cc1[nH]c2ccc(F)cc2c1-c1nc2c3cccnc3c3ncccc3c2[nH]1	1 (yes)
CCc1c2c(nc3ccc(O)cc13)-c1cc3c(c(=O)n1C2)COC(=O)[C@]3(O)CC + CN(C)c1ccc(Nc2c3ccc(NC(=O)CCN4CCCC4)cc3nc3cc(NC(=O)CCN4CCCC4)ccc23)cc1	1 (yes)
Nc1ccn(C2OC(CO)C(O)C2(F)F)c(=O)n1 (stereo unspecified) + CN(C)c1ccc(Nc2c3ccc(NC(=O)CCN4CCCC4)cc3nc3cc(NC(=O)CCN4CCCC4)ccc23)cc1	1 (yes)
O=C(NO)c1cnc(N2CCN(S(=O)(=O)c3ccc4ccccc4c3)CC2)nc1 + CN(C)c1ccc(Nc2c3ccc(NC(=O)CCN4CCCC4)cc3nc3cc(NC(=O)CCN4CCCC4)ccc23)cc1	1 (yes)
COc1cccc2c1C(=O)c1c(O)c3c(c(O)c1C2=O)CC(O)(C(=O)CO)CC3OC1CC(N)C(O)C(C)O1 (stereo unspecified) + Cc1cnc(CNC(=O)c2c(=O)c3ccc(N4CCCN(C)CC4)nc3n3c2sc2ccccc23)cn1	1 (yes)
C=CCn1c(=O)c2cnc(Nc3ccc(N4CCN(C)CC4)cc3)nc2n1-c1cccc(C(C)(C)O)n1 + Cc1[nH]c2ccc(F)cc2c1-c1nc2c3cccnc3c3ncccc3c2[nH]1	0 (no)
C#Cc1c(F)ccc2cc(O)cc(-c3ncc4c(N5CC6CCC(C5)N6)nc(OCC56CCCN5CC(F)C6)nc4c3F)c12 (stereo unspecified) + Cc1[nH]c2ccc(F)cc2c1-c1nc2c3cccnc3c3ncccc3c2[nH]1	0 (no)
Cc1cccc(N(C)C(=O)C2C(O)CCN2c2nc(C)cc(C(F)(F)F)c2C#N)c1 (stereo unspecified) + CN(C)c1ccc(Nc2c3ccc(NC(=O)CCN4CCCC4)cc3nc3cc(NC(=O)CCN4CCCC4)ccc23)cc1	0 (no)
O=c1[nH]cc(F)c(=O)[nH]1 + Cc1cnc(CNC(=O)c2c(=O)c3ccc(N4CCCN(C)CC4)nc3n3c2sc2ccccc23)cn1	0 (no)
CC(C)(O)C1CCC(Nc2ccc3ncc(-c4cccc(C(F)(F)F)c4)n3n2)CC1 (stereo unspecified) + Cc1cnc(CNC(=O)c2c(=O)c3ccc(N4CCCN(C)CC4)nc3n3c2sc2ccccc23)cn1	0 (no)
O=C(NO)c1cnc(N2CCN(S(=O)(=O)c3ccc4ccccc4c3)CC2)nc1 + Cc1cnc(CNC(=O)c2c(=O)c3ccc(N4CCCN(C)CC4)nc3n3c2sc2ccccc23)cn1	0 (no)
Cc1[nH]c2ccccc2c1CCNCc1ccc(/C=C/C(=O)NO)cc1 + CN(C)c1ccc(Nc2c3ccc(NC(=O)CCN4CCCC4)cc3nc3cc(NC(=O)CCN4CCCC4)ccc23)cc1	1 (yes)
CC[C@@]1(O)C(=O)OCc2c1cc1n(c2=O)Cc2cc3c(CN(C)C)c(O)ccc3nc2-1 + Cc1cnc(CNC(=O)c2c(=O)c3ccc(N4CCCN(C)CC4)nc3n3c2sc2ccccc23)cn1	1 (yes)
CC(C)(O)C1CCC(Nc2ccc3ncc(-c4cccc(C(F)(F)F)c4)n3n2)CC1 (stereo unspecified) + CN(C)c1ccc(Nc2c3ccc(NC(=O)CCN4CCCC4)cc3nc3cc(NC(=O)CCN4CCCC4)ccc23)cc1	0 (no)
COc1cc(C2c3cc4c(cc3C(OC3OC5COC(C)OC5C(O)C3O)C3COC(=O)C23)OCO4)cc(OC)c1O (stereo unspecified) + CN(C)c1ccc(Nc2c3ccc(NC(=O)CCN4CCCC4)cc3nc3cc(NC(=O)CCN4CCCC4)ccc23)cc1	0 (no)
Cc1[nH]c2ccccc2c1CCNCc1ccc(/C=C/C(=O)NO)cc1 + Cc1[nH]c2ccc(F)cc2c1-c1nc2c3cccnc3c3ncccc3c2[nH]1	1 (yes)
C=CC(=O)N1CCN(c2nc(=O)n(-c3c(C)ccnc3C(C)C)c3nc(-c4c(O)cccc4F)c(F)cc23)C(C)C1 (stereo unspecified) + CN(C)c1ccc(Nc2c3ccc(NC(=O)CCN4CCCC4)cc3nc3cc(NC(=O)CCN4CCCC4)ccc23)cc1	0 (no)
CC1COCCN1c1cc(C2(S(C)(=N)=O)CC2)nc(-c2ccnc3[nH]ccc23)n1 (stereo unspecified) + Cc1[nH]c2ccc(F)cc2c1-c1nc2c3cccnc3c3ncccc3c2[nH]1	0 (no)
CC(=O)O[C@H]1C(=O)[C@@]2(C)[C@H]([C@H](OC(=O)c3ccccc3)[C@]3(O)C[C@H](OC(=O)[C@H](O)[C@@H](NC(=O)c4ccccc4)c4ccccc4)C(C)=C1C3(C)C)[C@]1(OC(C)=O)CO[C@@H]1C[C@@H]2O + Cc1[nH]c2ccc(F)cc2c1-c1nc2c3cccnc3c3ncccc3c2[nH]1	1 (yes)
